system-tested: T1, human CD47 (human, UniProt Q08722 19-139, limits assumed, biotinylated in the ELISAs (site not stated))
T1 construct: also called biotinylated CD47; CD47 receptor
T1 sequence (Q08722 19-139 limits assumed): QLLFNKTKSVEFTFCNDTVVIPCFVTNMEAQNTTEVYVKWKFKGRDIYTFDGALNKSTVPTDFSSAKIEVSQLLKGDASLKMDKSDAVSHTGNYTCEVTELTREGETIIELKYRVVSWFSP
experimental-protocol: SPR (BIACORE)
quantity-measured: koff
Provide the measurement as a number trailed by its unit.

binder="C47B10 (antibody, V domains shown, lambda light chain (captured with anti-human lambda); also called CD47B10) VH: QVQLVQSGAEVKKPGASVKVSCKASGYTFTSYYMHWVRQAPGQGLEWMGIINPSGGSTSYAQKFQGRVTMTRDTSTSTVYMELSSLRSEDTAVYYCARSTLWFSEFDYWGQGTLVTVSS VL: QSVLTQPASVSGSPGQSISISCTGTSSDVGGHNYVSWYQQHPGKAPKLMIYDVRNRPSGVSNRFSGSKSGSTASLTISGLQTEDEADYYCNSYTGSRTYVFGSGTKLTVL" test_value="0.00129 s⁻¹"
binder="C47A8-CS (antibody, V domains shown) VH: QVQLVQSGAEVKKPGASVKVSCKASGYTFTSYYMHWVRQAPGQGLEWMGIINPSGGSTSYAQKFQGRVTMTRDTSTSTVYMELSSLRSEDTAVYYCARSTLWFSEFDYWGQGTLVTVSS VL: QSVLTQPSSVSASPGQSITISCSGTSSDVGGHNYVSWYQQHPGKAPKLMIYDVTKRPSGVPDRFSGSKSGNTASLTVSGLQAEDEADYYCSSYAGSRVYVFGTGTKLTVL" test_value="0.034 s⁻¹"

Next binder, koff to be filled in.
Q) Look up koff: C47A8-CQ (antibody, V domains shown) VH: QVQLVQSGAEVKKPGASVKVSCKASGYTFTSYYMHWVRQAPGQGLEWMGIINPSGGSTSYAQKFQGRVTMTRDTSTSTVYMELSSLRSEDTAVYYCARSTLWFSEFDYWGQGTLVTVSS VL: QSVLTQPSSVSASPGQSITISCSGTSSDVGGHNYVSWYQQHPGKAPKLMIYDVTKRPSGVPDRFSGSKSGNTASLTVSGLQAEDEADYYCQSYAGSRVYVFGTGTKLTVL
A) 0.02 s⁻¹

Recorded values, source patent US20160257751A1.
